Attribution: ChEMBL document CHEMBL4834393

Molecular target: Nuclear receptor subfamily 1 group I member 2 (Homo sapiens, UniProt O75469)
Sequence (O75469 whole entry): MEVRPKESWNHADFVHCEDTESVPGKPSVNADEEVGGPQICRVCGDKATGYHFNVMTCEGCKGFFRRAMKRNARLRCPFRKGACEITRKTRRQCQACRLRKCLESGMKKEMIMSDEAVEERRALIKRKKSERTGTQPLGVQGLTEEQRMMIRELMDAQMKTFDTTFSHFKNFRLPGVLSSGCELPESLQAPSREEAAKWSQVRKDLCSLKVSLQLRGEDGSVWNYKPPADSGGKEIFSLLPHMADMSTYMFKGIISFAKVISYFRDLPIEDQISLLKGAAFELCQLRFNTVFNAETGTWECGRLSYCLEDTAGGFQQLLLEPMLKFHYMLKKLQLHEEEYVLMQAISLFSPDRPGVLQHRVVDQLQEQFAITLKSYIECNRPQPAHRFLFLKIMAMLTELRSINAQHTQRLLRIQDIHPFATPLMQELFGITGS
Assay: Displacement of BODIPY FL vindoline from GST-tagged human PXR LBD incubated for 60 mins by TR-FRET assay
pIC50: −log10 of the molar value.
Would you mind labelling by pIC50? At or over 6 is 1, under is 0.

Challenge: Does pIC50 meet or surpass 6 for COc1ccc(F)cc1-n1nnc(S(=O)(=O)c2ccc(C(C)(C)C)cc2)c1C ?
Response given: 1

Challenge: Next up: COc1ccc(C)cc1-c1ncc(S(=O)(=O)c2ccc(C(C)(C)C)cc2)n1C
Response given: 0

Challenge: Ok, now COc1ccc(OC)c(-n2nnc(S(=O)(=O)c3ccc(Cl)cc3)c2C)c1
Response given: 0

Challenge: Now the same for COc1ccc(OC)c(-n2nnc(S(=O)(=O)c3ccc(N)cc3)c2C)c1
Response given: 0

Challenge: Please do the same for COc1cc(-n2nnc(S(=O)(=O)c3ccc(C(C)(C)C)cc3)c2C)c(OC)cc1C#N as well.
Response given: 1

Challenge: Continue with COc1ccc(C)cc1-n1nnc(S(=O)(=O)c2ccc(C(C)(C)C)cc2)c1C#N
Response given: 1

###

Could you please report measured IC50 for the items listed next?
Molecular target: UniProtKB O75469
Sequence (O75469 whole entry): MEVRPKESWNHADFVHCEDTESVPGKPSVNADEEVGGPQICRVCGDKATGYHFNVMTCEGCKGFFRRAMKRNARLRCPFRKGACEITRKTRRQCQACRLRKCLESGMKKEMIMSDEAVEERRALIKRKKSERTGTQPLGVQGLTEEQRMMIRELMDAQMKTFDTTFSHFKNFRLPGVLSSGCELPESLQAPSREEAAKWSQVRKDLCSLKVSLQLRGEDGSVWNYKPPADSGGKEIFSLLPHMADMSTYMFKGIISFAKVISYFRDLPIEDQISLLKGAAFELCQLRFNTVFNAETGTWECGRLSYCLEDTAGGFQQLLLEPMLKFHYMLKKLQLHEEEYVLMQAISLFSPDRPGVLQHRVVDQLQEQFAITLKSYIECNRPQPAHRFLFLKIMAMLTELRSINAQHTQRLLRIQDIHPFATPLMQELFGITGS
Test: Antagonist activity at human PXR expressed in HepG2 cells co-expressing luciferase gene under control of CYP3A4 promoter incubated for 24 hrs in presence of 5 uM rifampicin by luciferase reporter assay
I only need the number, in µM, no unit after it.

Challenge: Which IC50 reading was recorded for the compound COc1ccc(CO)cc1-n1nnc(S(=O)(=O)c2ccc(C(C)(C)C)cc2)c1C ?
Response given: 2

Challenge: And then COc1ccc(F)cc1-n1nnc(S(=O)(=O)c2ccc(C(C)(C)C)cc2)c1C , what is it?
Response given: 0.7

Challenge: Now this one: COc1cc(Cl)c(C)cc1-n1nnc(S(=O)(=O)c2ccc(C(C)(C)C)cc2)c1C
Response given: 2

Challenge: Continue with COc1cc(C(C)=O)c(C)cc1-n1nnc(S(=O)(=O)c2ccc(C(C)(C)C)cc2)c1C
Response given: 9

Challenge: Field entry: COc1cc(-n2nnc(S(=O)(=O)c3ccc(C(C)(C)C)cc3)c2C)c(OC)cc1F
Response given: 2

Challenge: Lookup COc1cc(C)c(Cl)cc1-n1nnc(S(=O)(=O)c2ccc(C(C)(C)C)cc2)c1C
Response given: 2.3

Challenge: Then COc1cc(C#N)c(C)cc1-n1nnc(S(=O)(=O)c2ccc(C(C)(C)C)cc2)c1C ?
Response given: 4

Challenge: Moving on to COc1ccccc1-n1nnc(S(=O)(=O)c2ccc(C(C)(C)C)cc2)c1C
Response given: 1

Challenge: What about COc1cc(C#N)c(Cl)cc1-n1nnc(S(=O)(=O)c2ccc(C(C)(C)C)cc2)c1C ?
Response given: 3.4

Challenge: Same read-out for COc1ccc(OC)c(-n2nnc(S(=O)(=O)c3ccc(C(C)(C)C)cc3)c2C#N)c1 ?
Response given: 2.4

Challenge: Subsequent entry: COC(=O)c1cc(OC)c(-n2nnc(S(=O)(=O)c3ccc(C(C)(C)C)cc3)c2C)cc1Cl
Response given: 10

Challenge: COc1ccc(C)cc1-n1nnc(S(=O)(=O)c2ccc(C(C)(C)C)cc2)c1N , same question.
Response given: 3.3

Challenge: // same read-out, input: COc1ccc(OC)c(-n2cc(S(=O)(=O)c3ccc(C(C)(C)C)cc3)nn2)c1
Response given: 3.4

Challenge: // query: COC(=O)c1cc(OC)c(-n2nnc(S(=O)(=O)c3ccc(C(C)(C)C)cc3)c2C)cc1C
Response given: 6

Challenge: Same question for COc1ccc(OC)c(-n2nnc(S(=O)(=O)c3ccc(C(C)(C)C)cc3)c2N)c1 please.
Response given: 1.7

Challenge: Can you handle COc1ccc(C)cc1-n1cc(S(=O)(=O)c2ccc(C(C)(C)C)cc2)nn1 next?
Response given: 5

Challenge: And COc1ccc(Cl)cc1-n1nnc(S(=O)(=O)c2ccc(C(C)(C)C)cc2)c1N ?
Response given: 4.4
